Measured values drawn from ChEMBL document CHEMBL1152519 for this set.

Would you kindly list % response for each of these molecules?
# system-under-test: Glutamate NMDA receptor; Grin1/Grin2a (Rattus norvegicus) (UniProt P35439+Q00959)
# assay-notes: Antagonist activity at rat recombinant NR1/NR2A receptor expressed in Xenopus laevis oocytes assessed as inhibition of glutamate/glycine-induced current at 3 uM by two electrode voltage clamp method relative to control
# Format: functional, cell-based
# applied-conditions: Oocyte
State just the number; it will be interpreted in %.

Prompt line: Look up % response: CS(=O)(=O)Nc1ccc(CCC(=O)NCCNc2ccc(Cl)c(Cl)c2)cc1
Response line: 99

Prompt line: Look up % response: CS(=O)(=O)Nc1ccc(CCC(=O)NNC(=S)Nc2ccc(Cl)c(Cl)c2)cc1
Response line: 104

Prompt line: Look up % response: CS(=O)(=O)Nc1ccc(OCC(=O)NC/C=C/c2ccc(Cl)c(Cl)c2)cc1
Response line: 100

Prompt line: Look up % response: CS(=O)(=O)Nc1ccc(OCC(=O)NCCSc2ccc(Cl)c(Cl)c2)cc1
Response line: 96

Prompt line: Look up % response: CS(=O)(=O)Nc1ccc(OCC(=O)NCCNc2ccc(Cl)c(Cl)c2)cc1
Response line: 92

Prompt line: Look up % response: CS(=O)(=O)Nc1ccc(OCCN2CCN(c3ccc(Cl)c(Cl)c3)C2=O)cc1
Response line: 105

Prompt line: Look up % response: CS(=O)(=O)Nc1ccc(CCC(=O)NC/C=C/c2ccc(Cl)c(Cl)c2)cc1
Response line: 99

Prompt line: Look up % response: CS(=O)(=O)Nc1ccc(CCC(=O)NNCCc2ccc(Cl)c(Cl)c2)cc1
Response line: 106

Prompt line: Look up % response: CS(=O)(=O)Nc1ccc(OCC(=O)NCCCNc2ccc(Cl)c(Cl)c2)cc1
Response line: 106

Prompt line: Look up % response: CS(=O)(=O)Nc1ccc(OCCNCCNc2ccc(Cl)c(Cl)c2)cc1
Response line: 91

Prompt line: Look up % response: CS(=O)(=O)Nc1ccc(OCCNCC(=O)Nc2ccc(Cl)c(Cl)c2)cc1
Response line: 108

Prompt line: Look up % response: CS(=O)(=O)Nc1ccc(CCC(=O)NNC(=O)c2ccc(Cl)c(Cl)c2)cc1
Response line: 102

* * *

experimental-endpoint: pKi
Scale note: pKi = -log10(concentration in M).

Prompt line: Query pKi on Glutamate receptor ionotropic, NMDA 2B (Rattus norvegicus, UniProt Q00960) for CS(=O)(=O)Nc1ccc(OCC(=O)NCCNc2ccc(Cl)c(Cl)c2)cc1
Response line: 6.92

* * *

# system-under-test: Glutamate receptor ionotropic, NMDA 1/NMDA 2B (Mus musculus, UniProt P35438+Q01097)
# Sequence (Q01097 whole entry, other chains not shown): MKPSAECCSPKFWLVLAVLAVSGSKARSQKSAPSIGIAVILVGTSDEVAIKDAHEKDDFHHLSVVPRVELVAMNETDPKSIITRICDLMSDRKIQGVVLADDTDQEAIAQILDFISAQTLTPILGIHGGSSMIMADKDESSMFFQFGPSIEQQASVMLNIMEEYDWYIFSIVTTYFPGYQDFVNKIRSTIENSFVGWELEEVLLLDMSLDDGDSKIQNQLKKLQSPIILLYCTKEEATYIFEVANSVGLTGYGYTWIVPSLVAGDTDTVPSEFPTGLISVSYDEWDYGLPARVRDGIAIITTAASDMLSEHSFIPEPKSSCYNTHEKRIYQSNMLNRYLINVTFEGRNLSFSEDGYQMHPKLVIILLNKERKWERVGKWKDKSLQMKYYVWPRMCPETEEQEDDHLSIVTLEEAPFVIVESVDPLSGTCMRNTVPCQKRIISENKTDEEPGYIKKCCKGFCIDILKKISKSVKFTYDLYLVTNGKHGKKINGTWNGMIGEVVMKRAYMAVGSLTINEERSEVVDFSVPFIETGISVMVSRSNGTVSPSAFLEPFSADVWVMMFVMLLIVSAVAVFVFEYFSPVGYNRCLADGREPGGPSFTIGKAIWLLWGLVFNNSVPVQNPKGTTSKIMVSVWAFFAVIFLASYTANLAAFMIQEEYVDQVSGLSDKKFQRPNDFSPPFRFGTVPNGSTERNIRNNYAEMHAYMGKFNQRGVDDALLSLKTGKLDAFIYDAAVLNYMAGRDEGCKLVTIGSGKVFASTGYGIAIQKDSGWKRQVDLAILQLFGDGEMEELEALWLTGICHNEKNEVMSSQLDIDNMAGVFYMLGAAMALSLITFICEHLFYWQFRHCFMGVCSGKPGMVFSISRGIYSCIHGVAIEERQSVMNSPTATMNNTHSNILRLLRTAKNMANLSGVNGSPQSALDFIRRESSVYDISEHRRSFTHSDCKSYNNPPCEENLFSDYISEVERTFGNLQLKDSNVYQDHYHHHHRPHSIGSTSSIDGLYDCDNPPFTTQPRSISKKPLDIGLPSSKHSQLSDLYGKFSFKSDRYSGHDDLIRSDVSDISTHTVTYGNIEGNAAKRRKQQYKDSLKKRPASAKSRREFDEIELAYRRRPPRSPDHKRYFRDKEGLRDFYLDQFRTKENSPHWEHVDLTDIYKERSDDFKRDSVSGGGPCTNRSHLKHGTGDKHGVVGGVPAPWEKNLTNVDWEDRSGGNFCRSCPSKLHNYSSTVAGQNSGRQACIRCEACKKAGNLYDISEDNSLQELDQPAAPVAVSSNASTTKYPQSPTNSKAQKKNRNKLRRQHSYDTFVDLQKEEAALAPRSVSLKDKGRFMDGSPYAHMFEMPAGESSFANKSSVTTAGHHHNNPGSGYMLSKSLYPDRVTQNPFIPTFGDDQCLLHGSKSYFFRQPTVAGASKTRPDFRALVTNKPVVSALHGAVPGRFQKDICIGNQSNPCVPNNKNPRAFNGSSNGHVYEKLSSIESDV
# assay-notes: Antagonist activity at mouse recombinant NR1/NR2B receptor expressed in frog oocytes assessed as inhibition of glutamate/glycine-induced current by two electrode voltage clamp method
experimental-endpoint: pIC50
Scale note: pIC50 = -log10(concentration in M).

Prompt line: Look up pIC50: CS(=O)(=O)Nc1ccc(OCC(=O)NCCNc2ccc(Cl)c(Cl)c2)cc1
Response line: 7.44

* * *

# system-under-test: Ionotropic glutamate receptor NMDA 1/2D (Rattus norvegicus) (UniProt P35439+Q62645)
# assay-notes: Antagonist activity at rat recombinant NR1/NR2D receptor expressed in Xenopus laevis oocytes assessed as inhibition of glutamate/glycine-induced current at 3 uM by two electrode voltage clamp method relative to control
# Assay type: functional, cell-based
# applied-conditions: Oocyte
Would you kindly list % response for each of these compounds?
Respond with a number, then the unit of measure.

Prompt line: Look up % response: CS(=O)(=O)Nc1ccc(CCC(=O)NNC(=O)Nc2ccc(Cl)c(Cl)c2)cc1
Response line: 91%

Prompt line: Look up % response: CS(=O)(=O)Nc1ccc(CCC(=O)NCCNc2ccc(Cl)c(Cl)c2)cc1
Response line: 84%

Prompt line: Look up % response: CS(=O)(=O)Nc1ccc(CCCC(=O)NCCc2ccc(Cl)c(Cl)c2)cc1
Response line: 89%

Prompt line: Look up % response: CS(=O)(=O)Nc1ccc(OCC(=O)NCCSc2ccc(Cl)c(Cl)c2)cc1
Response line: 96%

Prompt line: Look up % response: CS(=O)(=O)Nc1ccc(CCC(=O)NNCCc2ccc(Cl)c(Cl)c2)cc1
Response line: 95%

* * *

# system-under-test: Adrenergic receptor alpha-1 (Rattus norvegicus) (UniProt P15823+P23944+P43140)
# assay-notes: Displacement of [3H]prazosin from alpha1 adrenergic receptor in Wistar rat brain membrane at 3 uM
# Assay type: cell membranes
experimental-endpoint: Activity (%)
State just the number; it will be interpreted in %.

Prompt line: Look up Activity: CS(=O)(=O)Nc1ccc(OCC(=O)N2CCN(c3ccc(Cl)c(Cl)c3)CC2)cc1
Response line: 90

Prompt line: Look up Activity: CS(=O)(=O)Nc1ccc(CCC(=O)NCCNc2ccc(Cl)c(Cl)c2)cc1
Response line: 1

Prompt line: Look up Activity: CS(=O)(=O)Nc1ccc(CCC(=O)NNC(=O)Nc2ccc(Cl)c(Cl)c2)cc1
Response line: 5

Prompt line: Look up Activity: CS(=O)(=O)Nc1ccc(OCCN2CCN(c3ccc(Cl)c(Cl)c3)C2=O)cc1
Response line: 23

Prompt line: Look up Activity: CS(=O)(=O)Nc1ccc(OCC(=O)NCCOc2ccc(Cl)c(Cl)c2)cc1
Response line: 11

* * *

# system-under-test: Glutamate NMDA receptor; Grin1/Grin2c (Rattus norvegicus, UniProt P35439+Q00961)
# Sequence (Q00961 whole entry, other chains not shown): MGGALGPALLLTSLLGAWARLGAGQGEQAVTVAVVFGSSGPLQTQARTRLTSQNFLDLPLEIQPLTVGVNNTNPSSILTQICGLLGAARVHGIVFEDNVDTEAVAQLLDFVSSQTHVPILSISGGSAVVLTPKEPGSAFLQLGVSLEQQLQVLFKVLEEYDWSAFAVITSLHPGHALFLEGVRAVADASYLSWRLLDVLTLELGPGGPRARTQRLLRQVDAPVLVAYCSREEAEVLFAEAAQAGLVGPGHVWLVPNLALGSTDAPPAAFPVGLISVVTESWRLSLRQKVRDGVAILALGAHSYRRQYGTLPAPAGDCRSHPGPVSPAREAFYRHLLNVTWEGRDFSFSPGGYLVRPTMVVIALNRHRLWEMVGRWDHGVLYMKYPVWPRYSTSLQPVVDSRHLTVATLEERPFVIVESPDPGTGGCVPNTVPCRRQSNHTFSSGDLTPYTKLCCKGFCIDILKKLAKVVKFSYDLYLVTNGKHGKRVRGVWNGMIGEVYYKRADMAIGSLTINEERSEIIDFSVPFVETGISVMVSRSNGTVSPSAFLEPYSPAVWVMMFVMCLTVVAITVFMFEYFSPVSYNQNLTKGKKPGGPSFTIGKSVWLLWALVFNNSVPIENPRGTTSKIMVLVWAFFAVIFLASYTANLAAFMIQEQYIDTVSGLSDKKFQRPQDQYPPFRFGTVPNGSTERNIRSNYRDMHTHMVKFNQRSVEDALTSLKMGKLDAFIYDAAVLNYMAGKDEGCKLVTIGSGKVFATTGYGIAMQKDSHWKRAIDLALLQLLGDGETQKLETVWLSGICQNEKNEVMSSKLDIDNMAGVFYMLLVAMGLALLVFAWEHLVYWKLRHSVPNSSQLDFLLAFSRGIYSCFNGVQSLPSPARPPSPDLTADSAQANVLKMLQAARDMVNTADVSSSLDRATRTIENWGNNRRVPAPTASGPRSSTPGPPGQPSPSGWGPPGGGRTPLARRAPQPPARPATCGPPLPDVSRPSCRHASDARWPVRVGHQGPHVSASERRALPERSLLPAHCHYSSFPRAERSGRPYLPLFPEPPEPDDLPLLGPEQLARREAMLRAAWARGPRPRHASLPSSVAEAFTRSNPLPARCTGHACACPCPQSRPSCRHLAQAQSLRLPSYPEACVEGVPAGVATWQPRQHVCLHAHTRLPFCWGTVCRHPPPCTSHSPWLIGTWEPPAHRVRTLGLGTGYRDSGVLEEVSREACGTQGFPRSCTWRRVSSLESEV
# assay-notes: Antagonist activity at rat recombinant NR1/NR2C receptor expressed in Xenopus laevis oocytes assessed as inhibition of glutamate/glycine-induced current by two electrode voltage clamp method
experimental-endpoint: IC50 (µM)
State just the number; it will be interpreted in µM.

Prompt line: Look up IC50: CS(=O)(=O)Nc1ccc(OCC(=O)NCCNc2ccc(Cl)c(Cl)c2)cc1
Response line: 58

* * *

# system-under-test: Ionotropic glutamate receptor NMDA 1/2D (Rattus norvegicus) (UniProt P35439+Q62645)
# assay-notes: Antagonist activity at rat recombinant NR1/NR2D receptor expressed in Xenopus laevis oocytes assessed as inhibition of glutamate/glycine-induced current at 3 uM by two electrode voltage clamp method relative to control
# Type: functional, cell-based
# applied-conditions: Oocyte
Would you kindly list % response for each of these molecules?
State just the number; it will be interpreted in %.

Prompt line: Look up % response: CS(=O)(=O)Nc1ccc(OCC(=O)NCCNc2ccc(Cl)c(Cl)c2)cc1
Response line: 91

Prompt line: Look up % response: CS(=O)(=O)Nc1ccc(OCCNCC(=O)Nc2ccc(Cl)c(Cl)c2)cc1
Response line: 95

Prompt line: Look up % response: CS(=O)(=O)Nc1ccc(OCC(=O)NC/C=C/c2ccc(Cl)c(Cl)c2)cc1
Response line: 97

Prompt line: Look up % response: CS(=O)(=O)Nc1ccc(CCC(=O)NCCCNc2ccc(Cl)c(Cl)c2)cc1
Response line: 96

Prompt line: Look up % response: CS(=O)(=O)Nc1ccc(CCC(=O)NN2C(=O)c3cc(Cl)c(Cl)cc3C2=O)cc1
Response line: 93

Prompt line: Look up % response: CS(=O)(=O)Nc1ccc(CCCNCCNc2ccc(Cl)c(Cl)c2)cc1
Response line: 91

Prompt line: Look up % response: CS(=O)(=O)Nc1ccc(OCCNCCNc2ccc(Cl)c(Cl)c2)cc1
Response line: 100

Prompt line: Look up % response: CS(=O)(=O)Nc1ccc(OCC(=O)N2CCN(c3ccc(Cl)c(Cl)c3)CC2)cc1
Response line: 106

Prompt line: Look up % response: CS(=O)(=O)Nc1ccc(CCCN2CCN(c3ccc(Cl)c(Cl)c3)C2=O)cc1
Response line: 91

Prompt line: Look up % response: CS(=O)(=O)Nc1ccc(CCC(=O)NNC(=O)c2ccc(Cl)c(Cl)c2)cc1
Response line: 96

Prompt line: Look up % response: CS(=O)(=O)Nc1ccc(OCC(=O)NCCOc2ccc(Cl)c(Cl)c2)cc1
Response line: 92

Prompt line: Look up % response: CS(=O)(=O)Nc1ccc(OCC(=O)NCCCc2ccc(Cl)c(Cl)c2)cc1
Response line: 79

* * *

# system-under-test: Glutamate NMDA receptor; Grin1/Grin2b (Rattus norvegicus, UniProt P35439+Q00960)
# Sequence (Q00960 whole entry, other chains not shown): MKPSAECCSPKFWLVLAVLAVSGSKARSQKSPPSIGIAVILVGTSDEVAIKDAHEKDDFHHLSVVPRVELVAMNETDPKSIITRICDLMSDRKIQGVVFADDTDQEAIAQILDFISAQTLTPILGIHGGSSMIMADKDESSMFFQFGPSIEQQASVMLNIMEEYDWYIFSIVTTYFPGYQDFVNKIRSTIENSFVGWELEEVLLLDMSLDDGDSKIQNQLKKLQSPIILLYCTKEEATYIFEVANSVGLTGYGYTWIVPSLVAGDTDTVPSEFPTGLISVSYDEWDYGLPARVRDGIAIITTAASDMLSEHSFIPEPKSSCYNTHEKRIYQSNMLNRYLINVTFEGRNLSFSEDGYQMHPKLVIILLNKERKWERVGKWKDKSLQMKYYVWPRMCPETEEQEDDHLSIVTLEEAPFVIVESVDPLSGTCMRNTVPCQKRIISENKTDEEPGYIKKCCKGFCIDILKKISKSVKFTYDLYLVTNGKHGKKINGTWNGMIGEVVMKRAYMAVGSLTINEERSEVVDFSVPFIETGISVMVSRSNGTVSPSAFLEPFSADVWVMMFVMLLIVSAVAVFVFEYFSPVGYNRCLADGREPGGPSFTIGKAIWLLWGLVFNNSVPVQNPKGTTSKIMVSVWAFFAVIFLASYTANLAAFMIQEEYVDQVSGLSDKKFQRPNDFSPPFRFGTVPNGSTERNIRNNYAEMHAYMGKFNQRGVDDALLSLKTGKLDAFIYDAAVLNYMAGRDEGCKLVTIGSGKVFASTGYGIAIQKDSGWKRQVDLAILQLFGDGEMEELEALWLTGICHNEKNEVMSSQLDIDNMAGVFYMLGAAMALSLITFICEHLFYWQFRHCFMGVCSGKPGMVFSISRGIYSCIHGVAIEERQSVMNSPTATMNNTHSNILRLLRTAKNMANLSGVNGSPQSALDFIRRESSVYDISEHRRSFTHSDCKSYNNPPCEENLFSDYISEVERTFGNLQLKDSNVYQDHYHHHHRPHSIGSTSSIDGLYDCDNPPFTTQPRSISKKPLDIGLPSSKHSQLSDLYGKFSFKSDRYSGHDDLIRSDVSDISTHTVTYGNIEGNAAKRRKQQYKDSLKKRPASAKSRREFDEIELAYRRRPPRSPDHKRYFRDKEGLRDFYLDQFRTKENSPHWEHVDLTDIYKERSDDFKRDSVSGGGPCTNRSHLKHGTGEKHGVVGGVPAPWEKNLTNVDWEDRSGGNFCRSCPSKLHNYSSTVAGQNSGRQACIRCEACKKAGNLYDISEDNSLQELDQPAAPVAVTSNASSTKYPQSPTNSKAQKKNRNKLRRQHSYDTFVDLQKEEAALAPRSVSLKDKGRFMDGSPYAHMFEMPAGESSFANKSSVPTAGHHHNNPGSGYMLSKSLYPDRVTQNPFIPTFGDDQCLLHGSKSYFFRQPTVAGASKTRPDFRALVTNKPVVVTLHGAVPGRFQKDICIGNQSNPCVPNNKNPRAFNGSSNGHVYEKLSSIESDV
# assay-notes: Antagonist activity at wild type rat NR1/NR2B receptor expressed in Xenopus laevis oocytes assessed as inhibition of glutamate/glycine-induced current by two electrode voltage clamp method
# Type: functional, cell-based, Oocyte
experimental-endpoint: IC50 (nM)
State just the number; it will be interpreted in nM.

Prompt line: Look up IC50: CS(=O)(=O)Nc1ccc(OCC(=O)NCCNc2ccc(Cl)c(Cl)c2)cc1
Response line: 57

* * *

# system-under-test: Ionotropic glutamate receptor NMDA 1/2D (Rattus norvegicus) (UniProt P35439+Q62645)
# assay-notes: Antagonist activity at rat recombinant NR1/NR2D receptor expressed in Xenopus laevis oocytes assessed as inhibition of glutamate/glycine-induced current at 3 uM by two electrode voltage clamp method relative to control
# Assay type: functional, cell-based
# applied-conditions: Oocyte
experimental-endpoint: % response
Respond with a number, then the unit of measure.

Prompt line: Query % response on Ionotropic glutamate receptor NMDA 1/2D (Rattus norvegicus) (UniProt P35439+Q62645) for CS(=O)(=O)Nc1ccc(CCC(=O)NC/C=C/c2ccc(Cl)c(Cl)c2)cc1
Response line: 88%

Prompt line: Query % response on Ionotropic glutamate receptor NMDA 1/2D (Rattus norvegicus) (UniProt P35439+Q62645) for CS(=O)(=O)Nc1ccc(CCC(=O)NNC(=S)Nc2ccc(Cl)c(Cl)c2)cc1
Response line: 92%

Prompt line: Query % response on Ionotropic glutamate receptor NMDA 1/2D (Rattus norvegicus) (UniProt P35439+Q62645) for CS(=O)(=O)Nc1ccc(CCC(=O)N2CCN(c3ccc(Cl)c(Cl)c3)CC2)cc1
Response line: 97%

Prompt line: Query % response on Ionotropic glutamate receptor NMDA 1/2D (Rattus norvegicus) (UniProt P35439+Q62645) for CS(=O)(=O)Nc1ccc(OCC(=O)NCCCNc2ccc(Cl)c(Cl)c2)cc1
Response line: 100%

Prompt line: Query % response on Ionotropic glutamate receptor NMDA 1/2D (Rattus norvegicus) (UniProt P35439+Q62645) for CS(=O)(=O)Nc1ccc(OCCN2CCN(c3ccc(Cl)c(Cl)c3)C2=O)cc1
Response line: 98%
